melting point values for the compounds below.

>  <SMI>
Br.NC(N)=Nc1nc(-c2cccc(F)c2)cs1

>  <melting point, °C>
242.1

$$$$
>  <SMI>
Br.COc1ccc(-c2csc(N=C(N)N)n2)c(F)c1

>  <melting point, °C>
202.6

$$$$
>  <SMI>
Br.NC(N)=Nc1nc(-c2cc(F)ccc2F)cs1

>  <melting point, °C>
252.1

$$$$

----------
melting point values for the molecules below.

>  <SMI>
Cl.NC(N)=Nc1nc(-c2ccc(F)cc2F)cs1

>  <VALUE_UNITS>
°C

>  <melting point>
248.9

$$$$
>  <SMI>
Br.Cc1cccc(-c2csc(N=C(N)N)n2)c1

>  <VALUE_UNITS>
°C

>  <melting point>
232.4

$$$$
>  <SMI>
Br.NC(N)=Nc1nc(-c2ccccc2Cl)cs1

>  <VALUE_UNITS>
°C

>  <melting point>
211.9

$$$$
>  <SMI>
Br.COc1ccc(-c2csc(N=C(N)N)n2)c(OC)c1

>  <VALUE_UNITS>
°C

>  <melting point>
213

$$$$
>  <SMI>
Br.COc1ccccc1-c1csc(N=C(N)N)n1

>  <VALUE_UNITS>
°C

>  <melting point>
245.4

$$$$

----------
TARGET: α1G T-type calcium channel (Homo sapiens, UniProt O43497)
Sequence (O43497 whole entry): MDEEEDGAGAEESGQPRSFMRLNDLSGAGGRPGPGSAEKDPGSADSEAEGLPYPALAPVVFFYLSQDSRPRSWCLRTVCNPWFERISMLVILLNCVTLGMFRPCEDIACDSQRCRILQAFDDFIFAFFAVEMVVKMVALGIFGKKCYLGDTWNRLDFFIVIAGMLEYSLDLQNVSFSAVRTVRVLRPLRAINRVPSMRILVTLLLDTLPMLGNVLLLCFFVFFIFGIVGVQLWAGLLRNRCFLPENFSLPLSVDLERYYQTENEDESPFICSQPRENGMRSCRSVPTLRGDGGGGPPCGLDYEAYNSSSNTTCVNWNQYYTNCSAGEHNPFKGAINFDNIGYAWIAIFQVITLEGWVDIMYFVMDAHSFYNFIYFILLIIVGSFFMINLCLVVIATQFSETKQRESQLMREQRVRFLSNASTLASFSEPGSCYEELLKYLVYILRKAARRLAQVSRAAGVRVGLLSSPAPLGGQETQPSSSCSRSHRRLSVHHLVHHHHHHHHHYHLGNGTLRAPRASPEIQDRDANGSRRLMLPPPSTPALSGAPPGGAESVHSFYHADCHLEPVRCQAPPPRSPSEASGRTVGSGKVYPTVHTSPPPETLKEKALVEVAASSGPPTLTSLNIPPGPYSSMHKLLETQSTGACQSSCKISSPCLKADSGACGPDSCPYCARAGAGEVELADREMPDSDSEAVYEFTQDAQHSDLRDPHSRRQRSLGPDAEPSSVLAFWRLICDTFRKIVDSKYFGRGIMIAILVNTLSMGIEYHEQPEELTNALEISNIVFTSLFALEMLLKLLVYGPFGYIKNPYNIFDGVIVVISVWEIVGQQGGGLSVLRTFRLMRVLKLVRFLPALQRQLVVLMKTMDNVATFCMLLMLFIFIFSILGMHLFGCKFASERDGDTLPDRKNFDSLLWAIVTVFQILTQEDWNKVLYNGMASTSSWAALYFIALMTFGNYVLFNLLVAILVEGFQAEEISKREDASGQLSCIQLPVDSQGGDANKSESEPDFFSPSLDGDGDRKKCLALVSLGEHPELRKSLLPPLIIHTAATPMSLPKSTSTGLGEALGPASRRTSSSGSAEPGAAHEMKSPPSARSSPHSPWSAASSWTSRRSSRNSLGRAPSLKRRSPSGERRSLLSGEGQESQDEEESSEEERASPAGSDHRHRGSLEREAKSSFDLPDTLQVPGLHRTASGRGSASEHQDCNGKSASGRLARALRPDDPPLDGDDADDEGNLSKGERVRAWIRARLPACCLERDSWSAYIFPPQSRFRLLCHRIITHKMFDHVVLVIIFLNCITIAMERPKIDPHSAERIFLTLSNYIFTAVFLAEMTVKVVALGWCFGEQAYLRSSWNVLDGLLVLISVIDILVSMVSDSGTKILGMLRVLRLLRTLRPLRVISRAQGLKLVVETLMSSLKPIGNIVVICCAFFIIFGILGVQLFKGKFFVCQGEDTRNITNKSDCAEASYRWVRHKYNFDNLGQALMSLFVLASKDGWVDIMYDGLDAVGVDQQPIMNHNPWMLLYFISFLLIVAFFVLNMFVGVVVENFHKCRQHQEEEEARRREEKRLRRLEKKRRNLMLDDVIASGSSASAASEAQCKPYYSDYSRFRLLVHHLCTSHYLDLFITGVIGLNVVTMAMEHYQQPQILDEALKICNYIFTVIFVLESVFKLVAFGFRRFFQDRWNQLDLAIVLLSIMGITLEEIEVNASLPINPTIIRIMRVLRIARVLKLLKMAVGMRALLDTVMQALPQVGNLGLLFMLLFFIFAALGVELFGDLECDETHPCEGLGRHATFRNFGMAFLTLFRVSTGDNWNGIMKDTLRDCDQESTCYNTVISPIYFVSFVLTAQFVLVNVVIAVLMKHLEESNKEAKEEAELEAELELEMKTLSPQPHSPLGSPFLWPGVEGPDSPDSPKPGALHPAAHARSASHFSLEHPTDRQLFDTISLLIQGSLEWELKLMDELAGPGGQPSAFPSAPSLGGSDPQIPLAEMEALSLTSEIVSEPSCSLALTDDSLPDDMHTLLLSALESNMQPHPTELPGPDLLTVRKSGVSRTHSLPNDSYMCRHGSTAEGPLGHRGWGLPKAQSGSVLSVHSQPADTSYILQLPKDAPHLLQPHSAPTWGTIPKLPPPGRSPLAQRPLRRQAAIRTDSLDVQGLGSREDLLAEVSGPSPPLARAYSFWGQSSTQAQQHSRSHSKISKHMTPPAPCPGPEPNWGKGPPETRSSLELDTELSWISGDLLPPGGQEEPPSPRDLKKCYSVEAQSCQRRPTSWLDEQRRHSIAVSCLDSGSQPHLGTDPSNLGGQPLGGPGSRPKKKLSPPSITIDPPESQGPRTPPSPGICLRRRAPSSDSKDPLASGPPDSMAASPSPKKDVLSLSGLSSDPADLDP
PROTOCOL_SUMMARY: T-type calcium channel activity in HEK293 cells by electrophysiological whole cell patch clamp method
RECORDED_CONDITIONS: HEK293 cells expressing α1G
pIC50: −log10 of the molar value.

>  <COMPOUND>
NC(N)=Nc1nc(CC(=O)Nc2cc(Cl)cc(Cl)c2)cs1

>  <pIC50>
6.51

$$$$
>  <COMPOUND>
NC(N)=Nc1nc(CC(=O)Nc2cc(C(F)(F)F)cc(C(F)(F)F)c2)cs1 [drawing 11]

>  <pIC50>
6.11

$$$$

----------
TARGET: α1G T-type calcium channel (Homo sapiens)
Construct: host or cells: HEK293
PROTOCOL_SUMMARY: Assay for % inhibiting activity against T-type calcium channel using FDSS6000
Type: cell-based
RECORDED_CONDITIONS: HEK293, 10 μM; HEK293 cells expressing α1G; Table 4 (Chemical Formula 3 series)
Protocol: In the present invention, in order to search an efficient inhibitor against T-type calcium channel, a primary assay for T-type calcium channel inhibiting activity was conducted by a high-efficient assay using FDSS6000, wherein mammal HEK293 cell lines (originated from human kidney carcinoma cells) which specifically expresses α1G of T-type calcium channel was used for primary assay. Through the primary assay, compounds which show meaningful inhibition effects were selected. […]
Counter-ions that a name gives are not always drawn.
READOUT_KIND: inhibition at 10 µM

>  <MOLECULE>
COc1ccc(-c2csc(N=C(N)N)n2)cc1 [KHG24041, hydrobromide]

>  <TARGET>
α1G T-type calcium channel (Homo sapiens)

>  <READOUT_KIND>
inhibition at 10 µM

>  <READOUT_VALUE>
13.3%

$$$$
>  <MOLECULE>
Cl.NC(N)=Nc1nc(-c2ccc(F)cc2F)cs1 [KHG24026, hydrochloride]

>  <TARGET>
α1G T-type calcium channel (Homo sapiens)

>  <READOUT_KIND>
inhibition at 10 µM

>  <READOUT_VALUE>
19.8%

$$$$
>  <MOLECULE>
Cl.NC(N)=Nc1nc(-c2ccc3c(c2)OCC(=O)N3)cs1 [KHG24037, hydrochloride]

>  <TARGET>
α1G T-type calcium channel (Homo sapiens)

>  <READOUT_KIND>
inhibition at 10 µM

>  <READOUT_VALUE>
21.2%

$$$$
>  <MOLECULE>
NC(N)=Nc1nc(-c2cc(C(F)(F)F)cc(C(F)(F)F)c2)cs1 [KHG24392, hydrobromide]

>  <TARGET>
α1G T-type calcium channel (Homo sapiens)

>  <READOUT_KIND>
inhibition at 10 µM

>  <READOUT_VALUE>
12.9%

$$$$
>  <MOLECULE>
Cl.NC(N)=Nc1nc(-c2ccc(F)cc2)cs1 [KHG24025, hydrochloride]

>  <TARGET>
α1G T-type calcium channel (Homo sapiens)

>  <READOUT_KIND>
inhibition at 10 µM

>  <READOUT_VALUE>
19.9%

$$$$
>  <MOLECULE>
NC(N)=Nc1nc(-c2ccc([N+](=O)[O-])cc2)cs1 [KHG24389, hydrobromide]

>  <TARGET>
α1G T-type calcium channel (Homo sapiens)

>  <READOUT_KIND>
inhibition at 10 µM

>  <READOUT_VALUE>
21.9%

$$$$
>  <MOLECULE>
Br.NC(N)=Nc1nc(-c2cccc(Cl)c2)cs1 [KHG24388, hydrobromide]

>  <TARGET>
α1G T-type calcium channel (Homo sapiens)

>  <READOUT_KIND>
inhibition at 10 µM

>  <READOUT_VALUE>
10.8%

$$$$
>  <MOLECULE>
Br.NC(N)=Nc1nc(-c2ccc(Cl)c(Cl)c2)cs1 [KHG24390, hydrobromide]

>  <TARGET>
α1G T-type calcium channel (Homo sapiens)

>  <READOUT_KIND>
inhibition at 10 µM

>  <READOUT_VALUE>
7.32%

$$$$
>  <MOLECULE>
Br.NC(N)=Nc1nc(-c2cccc(Br)c2)cs1 [KHG24386, hydrobromide]

>  <TARGET>
α1G T-type calcium channel (Homo sapiens)

>  <READOUT_KIND>
inhibition at 10 µM

>  <READOUT_VALUE>
10.9%

$$$$
>  <MOLECULE>
Cl.NC(N)=Nc1nc(-c2ccc(-c3ccccc3)cc2)cs1 [KHG24038, hydrochloride]

>  <TARGET>
α1G T-type calcium channel (Homo sapiens)

>  <READOUT_KIND>
inhibition at 10 µM

>  <READOUT_VALUE>
14.2%

$$$$
>  <MOLECULE>
Br.NC(N)=Nc1nc(-c2ccc(Cl)cc2Cl)cs1 [KHG24379, hydrobromide]

>  <TARGET>
α1G T-type calcium channel (Homo sapiens)

>  <READOUT_KIND>
inhibition at 10 µM

>  <READOUT_VALUE>
16.8%

$$$$
>  <MOLECULE>
Br.NC(N)=Nc1nc(-c2ccc(Br)cc2)cs1 [KHG24381, hydrobromide]

>  <TARGET>
α1G T-type calcium channel (Homo sapiens)

>  <READOUT_KIND>
inhibition at 10 µM

>  <READOUT_VALUE>
20.8%

$$$$
>  <MOLECULE>
Br.NC(N)=Nc1nc(-c2ccccc2Cl)cs1 [KHG24373, hydrobromide]

>  <TARGET>
α1G T-type calcium channel (Homo sapiens)

>  <READOUT_KIND>
inhibition at 10 µM

>  <READOUT_VALUE>
21.7%

$$$$
>  <MOLECULE>
NC(N)=Nc1nc(-c2ccc3ccccc3c2)cs1 [KHG24039, hydrochloride]

>  <TARGET>
α1G T-type calcium channel (Homo sapiens)

>  <READOUT_KIND>
inhibition at 10 µM

>  <READOUT_VALUE>
21.9%

$$$$
>  <MOLECULE>
Br.COc1ccc(-c2csc(N=C(N)N)n2)c(F)c1 [KHG24377, hydrobromide]

>  <TARGET>
α1G T-type calcium channel (Homo sapiens)

>  <READOUT_KIND>
inhibition at 10 µM

>  <READOUT_VALUE>
20.2%

$$$$
>  <MOLECULE>
Br.NC(N)=Nc1nc(-c2cccc(F)c2)cs1 [KHG24383, hydrobromide]

>  <TARGET>
α1G T-type calcium channel (Homo sapiens)

>  <READOUT_KIND>
inhibition at 10 µM

>  <READOUT_VALUE>
21.6%

$$$$
>  <MOLECULE>
Cc1ccc(-c2csc(N=C(N)N)n2)cc1 [KHG24040, hydrobromide]

>  <TARGET>
α1G T-type calcium channel (Homo sapiens)

>  <READOUT_KIND>
inhibition at 10 µM

>  <READOUT_VALUE>
16.2%

$$$$
>  <MOLECULE>
Br.Cc1cccc(-c2csc(N=C(N)N)n2)c1 [KHG24382, hydrobromide]

>  <TARGET>
α1G T-type calcium channel (Homo sapiens)

>  <READOUT_KIND>
inhibition at 10 µM

>  <READOUT_VALUE>
22.3%

$$$$

----------
TARGET: α1G T-type calcium channel (Homo sapiens, UniProt O43497)
Construct: host or cells: HEK293
PROTOCOL_SUMMARY: Assay for % inhibiting activity against T-type calcium channel using FDSS6000
Type: cell-based
RECORDED_CONDITIONS: HEK293, 10 μM; HEK293 cells expressing α1G; Table 4 (Chemical Formula 3 series)
Where a name gives a salt, the structure may show the parent alone.

>  <MOLECULE>
NC(N)=Nc1nc(-c2ccc3[nH]c(=O)oc3c2)cs1 [KHG24022, hydrochloride]

>  <VALUE_UNITS>
%

>  <inhibition at 10 µM>
10.1

$$$$
>  <MOLECULE>
Cl.NC(N)=Nc1nc(-c2ccc(Cl)cc2)cs1 [KHG24024, hydrochloride]

>  <VALUE_UNITS>
%

>  <inhibition at 10 µM>
13

$$$$
>  <MOLECULE>
Br.COc1ccccc1-c1csc(N=C(N)N)n1 [KHG24374, hydrobromide]

>  <VALUE_UNITS>
%

>  <inhibition at 10 µM>
20.7

$$$$
>  <MOLECULE>
Br.NC(N)=Nc1nc(-c2cc(F)ccc2F)cs1 [KHG24391, hydrobromide]

>  <VALUE_UNITS>
%

>  <inhibition at 10 µM>
20.8

$$$$
>  <MOLECULE>
Br.COc1ccc(-c2csc(N=C(N)N)n2)c(OC)c1 [KHG24376, hydrobromide]

>  <VALUE_UNITS>
%

>  <inhibition at 10 µM>
16.1

$$$$
>  <MOLECULE>
Br.NC(N)=Nc1nc(-c2ccccc2)cs1 [KHG24380, hydrobromide]

>  <VALUE_UNITS>
%

>  <inhibition at 10 µM>
19.6

$$$$
>  <MOLECULE>
Br.NC(N)=Nc1nc(-c2cccc(C(F)(F)F)c2)cs1 [KHG24385, hydrobromide]

>  <VALUE_UNITS>
%

>  <inhibition at 10 µM>
15.8

$$$$
>  <MOLECULE>
Br.CCc1ccc(-c2csc(N=C(N)N)n2)cc1 [KHG24387, hydrobromide]

>  <VALUE_UNITS>
%

>  <inhibition at 10 µM>
17.1

$$$$
>  <MOLECULE>
Br.NC(N)=Nc1nc(-c2ccccc2F)cs1 [KHG24384, hydrobromide]

>  <VALUE_UNITS>
%

>  <inhibition at 10 µM>
20.3

$$$$
